# credit: PubChem BioAssay

experiment: small-molecule binders of probe aNOTCH2, primary screen, biochemical, small-molecule microarray, 635/667 nm fluorescence (AID 1121); details: higher = more signal;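 note: score merges feature fluorescence read at 667 nm with its signal to noise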
Assign composite z-score to each entry below.
Field format: numeric only.

Look up composite z-score for this compound: C=CCC(OC(C)=O)[C@@H]1[C@@H](N(Cc2cc3ccccc3o2)C(=O)c2cccc3ccccc23)c2cc(OCCCO)ccc2N1C(=O)c1ccc2ccccc2c1 (stereo partly drawn)
-0.0906

Follow-up entry: C=CCC(OC(C)=O)[C@@H]1[C@@H](N(Cc2cccc3ccccc23)C(=O)c2ccc(C)cc2)c2cc(OCCCO)ccc2N1C(=O)c1ccc2ccccc2n1 (stereo partly drawn)
0.0239

Follow-up entry: "COC(=O)[C@@]1(Cc2ccc(OC)cc2)[C@H]2c3cc(C(=O)N(C)C)n(Cc4ccsc4Br)c3C[C@H]2CN1C(=O)c1ccccc1"
0.371

###

Assign z-score to each entry below.
assay: CREB reporter modulators without forskolin, primary screen, cell-based, PC12, CRE-LacZ reporter, unstimulated (AID 1145); details: no forskolin, luminescence, 4.5 h, higher = more signal, called active from +8 up or from −8 down
Field format: numeric only.

Look up z-score for this molecule: "C=C(COC)C(=O)CC[C@@H](OC(=O)c1cccnc1)c1cccc(OCCO)c1"
8.15

Follow-up entry: "COCCOC(=O)N1C(=O)[C@@]2(c3cc(C#Cc4ccc(OC)cc4)ccc31)[C@H](c1ccc(OCCO)cc1)N1[C@H](c3ccccc3)[C@H](c3ccccc3)OC(=O)[C@H]1[C@@H]2C(=O)N1CCCCCCC1"
0.891

Follow-up entry: "COCC(=C=CC[C@@H](O)c1ccc(OCCO)cc1)C[C@@H](O)COCc1ccccc1"
10.3

Follow-up entry: "NCCCC[C@@H]1NC(=O)[C@H]2C[C@@H](C(=O)NCc3ccc(F)cc3)[C@@H](c3ccc(O)cc3)N2C1=O"
0.143

Follow-up entry: "NC(=O)[C@@]1(CCS(=O)(=O)c2ccccc2)COC(c2ccc(OCCCO)cc2)=N1"
0.148

Follow-up entry: CC(C)C[C@H]1NC(=O)[C@@]23C(=O)N[C@@H](Cc4ccccc4)C2[C@H](C)[C@@]2(C)O[C@H]2C3/C=C/C/C=C\CNC(=O)[C@@H]2CCCN2C1=O (some centres not stated)
0.13

Follow-up entry: COc1cc2c(cc1O)C(c1ccc(CN3CCCC3)cc1)N(Cc1cccc(OC(F)(F)F)c1)CC2 (configuration not stated)
0.0924

Follow-up entry: "O=C1N(CCS(=O)(=O)c2ccccc2)c2ccccc2[C@@H]2OC(c3ccc(OCCCO)cc3)=N[C@]12CCS(=O)(=O)c1ccccc1"
2.41

Follow-up entry: COc1ccc(C(O)C2C=CC3C(=O)N(C)C(=O)C3N2Nc2ccc([N+](=O)[O-])cc2[N+](=O)[O-])cc1OCc1ccccc1 (configuration not stated)
0.243

Follow-up entry: "COC(=O)[C@@]1(Cc2ccc(F)cc2)[C@H]2c3cc(C(=O)N(C)C)n(CCN4CCOCC4)c3C[C@H]2CN1C(=O)c1ccccc1"
-0.372

Follow-up entry: "COc1cccc(OC)c1C(=O)O[C@H]1[C@@H]2OC(=O)[C@H](Cc3cccc(Br)c3)C/C=C/C[C@@H](Cc3cccc(Br)c3)C(=O)O[C@H]2[C@@H](OC)O[C@@H]1CO"
-0.467

Follow-up entry: "CC(C)C[C@@H]1NC(=O)[C@H]2C[C@@H](C(=O)NCCCCCCNC(=O)CS)[C@@H](c3ccc(O)cc3)N2C1=O"
-0.805

Follow-up entry: C=CCC(OC(C)=O)[C@@H]1[C@@H](N(Cc2cccc3ccccc23)C(=O)c2ccc(-c3ccccc3)cc2)c2cc(OCCCO)ccc2N1C(=O)c1ccc2ccccc2n1 (some centres not stated)
0.106

Follow-up entry: "COC(=O)[C@@H]1N=C(c2ccc(OCCCO)cc2)O[C@@H]1c1ccccc1CN=[N+]=[N-]"
-0.268

Follow-up entry: "COC(=O)[C@@]1(Cc2ccc(F)cc2)[C@H]2c3cc(C(=O)N(C)C)n(CCn4cc([N+](=O)[O-])nc4C)c3C[C@H]2CN1C(=O)c1ccccc1"
-0.761

Follow-up entry: CN1C(=O)C2C=CC(C(O)c3ccc(-c4ccccc4)s3)N(Nc3ccccc3)C2C1=O (configuration not stated)
0.429

Follow-up entry: "COCCOC(=O)N1C(=O)[C@@]2(c3cc(C#CC4(O)CCCCCC4)ccc31)[C@H](c1ccccc1OCCO)N1[C@H](c3ccccc3)[C@H](c3ccccc3)OC(=O)[C@H]1[C@@H]2C(=O)N1CCCCCCC1"
-1.01

Follow-up entry: "CC(C)(C)OC(=O)CC[C@]1(C(N)=O)N=C(c2ccc(OCCCO)cc2)O[C@H]1c1ccccc1CN=[N+]=[N-]"
1.04

Follow-up entry: C=CCC(OC(C)=O)[C@@H]1[C@@H](N(Cc2cccc3ccccc23)C(=O)c2ccc(C)cc2)c2cc(OCCCO)ccc2N1C(=O)c1ccc2ccccc2n1 (some centres not stated)
0.642

Follow-up entry: CCCCC(O)C1C=CC2C(=O)NC(=O)C2N1Nc1ccc(Cl)cc1Cl (configuration not stated)
0.819

Follow-up entry: "O=C1O[C@H](c2ccccc2)[C@H](c2ccccc2)N2[C@H]1[C@@H](C(=O)NC[C@H](O)c1ccccc1)[C@]1(C(=O)Nc3ccc(C#CCCO)cc31)[C@H]2c1ccccc1OCCO"
-0.141

Follow-up entry: "COc1ccc([Si](C)(C)[C@H]2[C@H](CCO)O[C@@]3(C(=O)N(Cc4ccccc4)c4ccc(N(C=O)c5ccccc5)cc43)[C@@H]2C)cc1"
2.08

Follow-up entry: C=CCC(OC(C)=O)[C@@H]1[C@@H](N(Cc2ccc(-c3cccc(C(F)(F)F)c3)o2)C(=O)Cc2ccc(OC)cc2)c2cc(OCCCO)ccc2N1C(=O)c1ccc2ccccc2n1 (some centres not stated)
0.339

Follow-up entry: "CCOC(=O)C[C@H]1[C@H](OC(=O)Cc2ccc3c(c2)OCO3)[C@@H](NC(=O)c2ccccc2)c2cc(OCCCO)ccc2N1C(=O)Cc1ccc(OC)cc1"
2.31

Follow-up entry: "COCCOC(=O)N1C(=O)[C@@]2(c3cc(C#CCC(C(=O)OC)C(=O)OC)ccc31)[C@H](C(=O)N1CCCCCCC1)[C@H]1C(=O)O[C@H](c3ccccc3)[C@H](c3ccccc3)N1[C@@H]2c1ccccc1OCCO"
-0.475

Follow-up entry: "CCCCC=C[C@@H](NC(=O)c1ccc(C(F)(F)F)cc1)c1ccccc1"
0.19

Follow-up entry: "COCCCNC(=O)[C@@H]1c2ccccc2C(=O)N(Cc2cc(C(F)(F)F)cc(C(F)(F)F)c2)[C@H]1c1ccc(CO)cc1"
0.288
